# Tested on: Fibroblast
# Assay Details: Multiplex assay against human fibroblast
# Type: toxicity, cell-based
# Applied Conditions: 12 h, 1 µM, compound concentration 1 uM, replicate 1
Population Pyknosed Nuclei (%) for assorted compounds
Measure Name: Population Pyknosed Nuclei (%)

INSERT INTO assay_data (item_smiles, reported_measurement) VALUES
  ('CN(C)C(=O)Cn1cc(-c2ccc(-c3cncc4ccccc34)cc2)cn1', 16),
  ('CCc1cc2cc(NS(=O)(=O)c3ccc(C#N)cc3)ccc2n(CC)c1=O', 18),
  ('CC(C)COc1ccc(CNC(=O)N(Cc2ccc(F)cc2)C2CCN(C)CC2)cc1', 12),
  ('CN[C@@H](C)C(=O)N[C@H](C(=O)N1CCC[C@H]1C(=O)Nc1snnc1-c1ccccc1)C1CCCCC1', 16),
  ('N#Cc1cc(F)cc(-c2nc(-c3ccc(F)cn3)no2)c1', 15);

###

# Population Membrane Permeable-Phenotype (%) per entry
# Test system: U2OS
# Assay Details: Multiplex assay against U2OS
# Format: toxicity, cell-based
# Applied Conditions: human, 12 h, 1 µM, compound concentration 1 uM, replicate 2
Measure Name: Population Membrane Permeable-Phenotype (%)

INSERT INTO assay_data (molecule, reported_measurement) VALUES
  ('Cc1sc2c(c1C)C(c1ccc(Cl)cc1)=N[C@@H](CC(=O)NCCCCCCCCNC(=O)COc1cccc3c1C(=O)N(C1CCC(=O)NC1=O)C3=O)c1nnc(C)n1-2 (some centres not stated)', 5),
  ('Cc1c(CC(=O)O)c2cccnc2n1Cc1ccc(S(C)(=O)=O)cc1C(F)(F)F', 8),
  ('O=C(CCCc1ccccc1)Nc1nc2ccccc2c(=O)s1', 7),
  ('COC[C@@H](c1ccc(C(F)(F)F)cc1)N1CCN(C2(C)CCN(C(=O)c3c(C)ncnc3C)CC2)C[C@@H]1C.O=C(O)/C=C\C(=O)O [VICRIVIROC MALEATE]', 11),
  ('Cl.NCCc1ccc(O)c(O)c1 [DOPAMINE HYDROCHLORIDE]', 8),
  ('CN[C@@H](C)C(=O)N[C@H](C(=O)N1CCC[C@H]1C(=O)Nc1snnc1-c1ccccc1)C1CCCCC1', 50),
  ('CC(/C=C1\SC(=S)N(CCCC(=O)Nc2ccc(C(=O)O)c(O)c2)C1=O)=C\c1ccccc1', 3),
  ('O=C(NCCN1CCC(n2c(=O)[nH]c3cc(Cl)ccc32)CC1)c1ccc(F)cc1 [HALOPEMIDE]', 7),
  ('CCc1cc2cc(NS(=O)(=O)c3ccc(C#N)cc3)ccc2n(CC)c1=O', 8),
  ('CCCCC1=NC2(CCCC2)C(=O)N1Cc1ccc(-c2ccccc2-c2nnn[nH]2)cc1', 11),
  ('NCCc1cn(S(=O)(=O)c2c(Cl)nc3sccn23)c2ccccc12.O=C(O)C(=O)O', 4),
  ('N#Cc1c(Oc2cccc(OS(=O)(=O)CCCC(F)(F)F)c2)cccc1C(F)(F)F', 7),
  ('CCCCCC(O)/C=C/[C@H]1C(=O)CC(O)C1C/C=C\CCCC(=O)O (some centres not stated)', 8),
  ('CN(C)C(=O)Cn1cc(-c2ccc(-c3cncc4ccccc34)cc2)cn1', 6),
  ('C[C@H](N)COC(=O)[C@@H](CCCCN)NC(=O)Cc1c(-c2ccc3ccccc3c2)[nH]c2c1ccc1ccccc12', 4),
  ('N#Cc1cc(F)cc(-c2nc(-c3ccc(F)cn3)no2)c1', 6),
  ('CC(C)c1noc(N2CCC(COc3ccc(-c4ccc(S(C)(=O)=O)cc4)nc3)CC2)n1', 4);
